Test system: SF-295
Experiment: NCI tumour cell line growth inhibition, 48 h
The source made the active and inactive calls. No stated cut-off is given here; in the data, active = GI50 up to about 1.1 µM and inactive = higher.
Result category, one only: label 1 = active, label 0 = inactive

Request: Could you please tell me the result logged for "O=c1oc2ccc3ccccc3c2cc1-c1cn2c(n1)sc1ccccc12" in this assay?
Response: label 0

Request: Could you please tell me the result logged for "Clc1ccccc1C(n1cc(Br)cn1)n1cc(Br)cn1" in this assay?
Response: label 0

Request: Could you please tell me the result logged for "c1ccc2c(c1)nc1n2CCNC1" in this assay?
Response: label 0

Request: Could you please tell me the result logged for "O=C1Cc2ccccc2CCc2ccsc21" in this assay?
Response: label 0

Request: Could you please tell me the result logged for "COC(=O)c1cc2c(nc1C)-c1ccccc1OS2(=O)=O" in this assay?
Response: label 0

Request: Could you please tell me the result logged for "CCC(=O)N1C(=S)SC[C@H]1C(=O)OC" in this assay?
Response: label 0

Request: Could you please tell me the result logged for "O=[N+]([O-])C(=C(N1CCCCC1)N1CCCCC1)/C(Cl)=C(\Cl)[N+](=O)[O-]" in this assay?
Response: label 0

Request: Could you please tell me the result logged for CCOC(=O)N1N=C(/C(C)=N/OC)C(C)[S+]1[O-] (centres undefined) in this assay?
Response: label 0

Request: Could you please tell me the result logged for O=C(O)C1CCCCC1C(=O)Nc1nc2ccccc2[nH]1 (centres undefined) in this assay?
Response: label 0

Request: Could you please tell me the result logged for "N=C(N)SCc1cn2ccccc2n1" in this assay?
Response: label 0

Request: Could you please tell me the result logged for "NS(=O)(=O)c1ccc(N2C(=O)C(=O)N(c3ccccc3)C2=S)cc1" in this assay?
Response: label 0

Request: Could you please tell me the result logged for "Fc1nc(Sc2ncnc3nc[nH]c23)nc(-c2c3ccccc3c3sc4ccccc4n23)n1" in this assay?
Response: label 0

Request: Could you please tell me the result logged for CC(Sc1ccccc1)C(CO)(CO)[N+](=O)[O-] (centres undefined) in this assay?
Response: label 0

Request: Could you please tell me the result logged for "CCC1C(C#N)=C(O)NC(O)=C1C#N" in this assay?
Response: label 0

Request: Could you please tell me the result logged for "COC(=O)C1=C(c2ccc3c(c2)OCO3)O[C@H](c2cc(OC)c(OC)c(OC)c2)[C@H]1COC(C)=O" in this assay?
Response: label 1

Request: Could you please tell me the result logged for C=CCOCCCCC(C(C)=O)C(=O)OC (centres undefined) in this assay?
Response: label 0

Request: Could you please tell me the result logged for "CC(C)C(=O)Nc1nc2[nH]cnc2c(=O)[nH]1" in this assay?
Response: label 0

Request: Could you please tell me the result logged for "CC1(C)O[C@H]2[C@H](O)C[C@](O)(CO)C[C@H]2O1" in this assay?
Response: label 0

Request: Could you please tell me the result logged for "Cc1ccc(S(=O)(=O)NC(=O)Nc2cccc(S(N)(=O)=O)c2)cc1" in this assay?
Response: label 0

Request: Could you please tell me the result logged for "CN(C(=O)CCC(=O)O)c1ccccc1C(=O)O" in this assay?
Response: label 0

Request: Could you please tell me the result logged for "CCOc1ccc(N/C(Cl)=C(Cl)\C(=C(\Nc2ccc(OCC)cc2)n2nnc3ccccc32)[N+](=O)[O-])cc1" in this assay?
Response: label 0

Request: Could you please tell me the result logged for "N#CCCC[Si]12OCCN(CCO1)CCO2" in this assay?
Response: label 0

Request: Could you please tell me the result logged for CC1(CC(=O)OC(C#C[Si](C)(C)C)Cc2ccccc2)OCCO1 (centres undefined) in this assay?
Response: label 0

Request: Could you please tell me the result logged for CC(C)=CC1C(C(=O)OCc2cc3c(cc2Cl)OCO3)C1(C)C (centres undefined) in this assay?
Response: label 0
